PROCEDURE_SUMMARY: Metabolic stability in human plasma assessed as compound remaining at 1 uM measured at 4 hrs by LC-MS/MS analysis
Format: ADME, cell-free
CONDITION_NOTES: read-out: Stability
TEST_READOUT: remaining at 4 h, 1 µM (%)
Numbers only, in %.

{"ENTRY_SMILES": "O=C(Nc1ccc(F)cc1)c1ccc(SCc2cc(OC(F)(F)F)ccc2B(O)O)nc1", "RECORDED_MEASUREMENT": 34}

Continue with the next compound.
Record request: remaining at 4 h, 1 µM value, item O=C(Nc1ccc(F)cc1)c1cnc(N(Cc2ccccc2)Cc2ccc(B(O)O)cn2)nc1
71

----------
PROCEDURE_SUMMARY: Oral bioavailability in rat at 1 mg/kg by LC-MS/MS analysis
Format: ADME, organism-based
CONDITION_NOTES: in vivo
TEST_READOUT: bioavailability (%)
Numbers only, in %.

Record request: bioavailability value, item O=C(Nc1ccc(F)cc1)c1cnc(N(Cc2ccccc2)Cc2ccc(B(O)O)cn2)nc1
24

----------
Task for the reader: assign each of the following molecules its reported pIC50.
TARGET_OR_SYSTEM: C-X-C chemokine receptor type 2 (Homo sapiens, UniProt P25025)
PROCEDURE_SUMMARY: Antagonist activity at CXCR2 (unknown origin) transfected in RBL cells assessed as inhibition of IL-8-mediated intracellular calcium release preincubated for 30 mins followed by IL-8 addition by FLUO-4AM-based fluorescent microplate reader analysis
One number for each entry, as −log10 of the molar value.

Below are worked cases with known answers.
{"ENTRY_SMILES": "O=C(Nc1ccc(F)cc1)c1ccc(N(Cc2ccc(B(O)O)cn2)Cc2ccco2)nc1", "TARGET_OR_SYSTEM": "C-X-C chemokine receptor type 2 (Homo sapiens, UniProt P25025)", "RECORDED_MEASUREMENT": 7.68}
{"ENTRY_SMILES": "O=C(Nc1ccc(F)cc1)c1cnc(NCc2cccc(B(O)O)c2)nc1", "TARGET_OR_SYSTEM": "C-X-C chemokine receptor type 2 (Homo sapiens, UniProt P25025)", "RECORDED_MEASUREMENT": 6.04}
{"ENTRY_SMILES": "CN(Cc1cccc(B(O)O)c1)c1ncc(C(=O)Nc2ccc(F)cc2)cn1", "TARGET_OR_SYSTEM": "C-X-C chemokine receptor type 2 (Homo sapiens, UniProt P25025)", "RECORDED_MEASUREMENT": 5.60}

Continue with the next molecule.
Requested read-out pIC50, target or system C-X-C chemokine receptor type 2 (Homo sapiens, UniProt P25025), entry O=C(Nc1ccc(F)cc1)c1ccc(N(Cc2ccccn2)Cc2ccc(B(O)O)cn2)nc1
5.31

----------
PROCEDURE_SUMMARY: Metabolic stability in human plasma assessed as compound remaining at 1 uM measured at 24 hrs by LC-MS/MS analysis
Type: ADME, cell-free
CONDITION_NOTES: read-out: Stability
Task for the reader: assign each of the following compounds its reported remaining at 24 h, 1 µM.
One number for each entry, in %.

{"ENTRY_SMILES": "O=C(Nc1ccc(F)cc1)c1cnc(N(Cc2ccccc2)Cc2ccc(B(O)O)cn2)nc1", "remaining at 24 h, 1 µM [%]": 62}

Record request: remaining at 24 h, 1 µM value, item O=C(Nc1ccc(F)cc1)c1ccc(SCc2cc(OC(F)(F)F)ccc2B(O)O)nc1
2

----------
TARGET_OR_SYSTEM: C-X-C chemokine receptor type 1 (Homo sapiens, UniProt P25024)
Sequence (P25024 whole entry): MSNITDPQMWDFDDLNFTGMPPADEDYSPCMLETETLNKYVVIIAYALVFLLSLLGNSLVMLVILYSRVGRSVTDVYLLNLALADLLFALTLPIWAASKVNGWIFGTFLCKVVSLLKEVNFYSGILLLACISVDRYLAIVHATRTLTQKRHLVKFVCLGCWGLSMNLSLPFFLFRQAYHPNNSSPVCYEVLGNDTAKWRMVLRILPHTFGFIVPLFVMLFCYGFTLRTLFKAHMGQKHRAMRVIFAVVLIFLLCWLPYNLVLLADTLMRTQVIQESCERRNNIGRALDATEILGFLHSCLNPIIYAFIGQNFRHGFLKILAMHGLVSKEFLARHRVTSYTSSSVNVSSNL
PROCEDURE_SUMMARY: Antagonist activity at CXCR1 (unknown origin) transfected in RBL cells assessed as inhibition of IL-8-mediated intracellular calcium release preincubated for 30 mins followed by IL-8 addition by FLUO-4AM-based fluorescent microplate reader analysis
TEST_READOUT: pIC50
Give bare numbers, as −log10 of the molar value.

Below are worked cases with known answers.
{"ENTRY_SMILES": "CN(Cc1cccc(B(O)O)c1)c1ccc(C(=O)Nc2ccc(F)cc2)cn1", "TARGET_OR_SYSTEM": "C-X-C chemokine receptor type 1 (Homo sapiens, UniProt P25024)", "pIC50": 5.39}
{"ENTRY_SMILES": "O=C(Nc1ccc(F)cc1)c1cnc(NCc2ccc(B(O)O)cc2)nc1", "TARGET_OR_SYSTEM": "C-X-C chemokine receptor type 1 (Homo sapiens, UniProt P25024)", "pIC50": 5.77}
{"ENTRY_SMILES": "CN(Cc1cccc(B(O)O)c1)c1ncc(C(=O)Nc2ccc(F)cc2)cn1", "TARGET_OR_SYSTEM": "C-X-C chemokine receptor type 1 (Homo sapiens, UniProt P25024)", "pIC50": 5.60}

Consider the following items and state reported pIC50 for each.
1. O=C(Nc1ccc(F)cc1)c1ccc(NCc2ccc(B(O)O)cc2)nc1
2. O=C(Nc1ccc(F)cc1)c1ccc(N(Cc2ccccc2)Cc2ccc(B(O)O)cn2)nc1
3. CN(Cc1ccc(B(O)O)cn1)c1ccc(C(=O)Nc2ccc(F)cc2)cn1
4. O=C(Nc1ccc(F)cc1)c1cnc(N(Cc2ccccn2)Cc2ccc(B(O)O)cn2)nc1
5. O=C(Nc1ccc(F)cc1)c1ccc(N(Cc2ccc(B(O)O)cn2)Cc2ccco2)nc1
6. O=C(Nc1ccc(F)cc1)c1cnc(N(Cc2ccc(B(O)O)cn2)Cc2ccco2)nc1

[5.37, 6.49, 5.77, 5.69, 8.48, 6.35]

Consider the following items and state reported pIC50 for each.
1. CN(Cc1ccc(B(O)O)cn1)c1ncc(C(=O)Nc2ccc(F)cc2)cn1
2. CN(Cc1ccc(B(O)O)cc1)c1ccc(C(=O)Nc2ccc(F)cc2)cn1
3. O=C(Nc1ccc(F)cc1)c1ccc(NCc2cccc(B(O)O)c2)nc1
4. O=C(Nc1ccc(F)cc1)c1cnc(NCc2cccc(B(O)O)c2)nc1

1: 5.77; 2: 5.85; 3: 6.21; 4: 5.87

Consider the following items and state reported pIC50 for each.
1. CN(Cc1ccc(B(O)O)cc1)c1ncc(C(=O)Nc2ccc(F)cc2)cn1
2. O=C(Nc1ccc(F)cc1)c1cnc(N(Cc2ccccc2)Cc2ccc(B(O)O)cn2)nc1

1. 6.17
2. 8.15

----------
Task for the reader: assign each of the following compounds its reported remaining at 1 h, 1 µM.
PROCEDURE_SUMMARY: Metabolic stability in human plasma assessed as compound remaining at 1 uM measured at 1 hr by LC-MS/MS analysis
Format: ADME, cell-free
CONDITION_NOTES: read-out: Stability
Answers are plain numbers, in %.

{"ENTRY_SMILES": "O=C(Nc1ccc(F)cc1)c1ccc(SCc2cc(OC(F)(F)F)ccc2B(O)O)nc1", "remaining at 1 h, 1 µM, %": 62}

Continue with the next compound.
Record request: remaining at 1 h, 1 µM value, item O=C(Nc1ccc(F)cc1)c1cnc(N(Cc2ccccc2)Cc2ccc(B(O)O)cn2)nc1
90

----------
TARGET_OR_SYSTEM: C-X-C chemokine receptor type 2 (Homo sapiens)
PROCEDURE_SUMMARY: Antagonist activity at CXCR2 (unknown origin) transfected in RBL cells assessed as inhibition of IL-8-mediated intracellular calcium release preincubated for 30 mins followed by IL-8 addition by FLUO-4AM-based fluorescent microplate reader analysis
Type: functional, cell-based
Task for the reader: assign each of the following compounds its reported log10 of IC50.
Short version: log10 scale, IC50, nM.

Consider the following items and state reported log10 of IC50 for each.
1. O=C(Nc1ccc(F)cc1)c1cnc(NCc2ccc(B(O)O)cc2)nc1
2. O=C(Nc1ccc(F)cc1)c1ccc(NCc2cccc(B(O)O)c2)nc1
3. O=C(Nc1ccc(F)cc1)c1ccc(N(Cc2ccc(B(O)O)cn2)CC2CCOCC2)nc1
4. O=C(Nc1ccc(F)cc1)c1ccc(N(Cc2ccccc2)Cc2ccc(B(O)O)cn2)nc1
5. O=C(Nc1ccc(F)cc1)c1cnc(N(Cc2ccccn2)Cc2ccc(B(O)O)cn2)nc1
6. CN(Cc1ccc(B(O)O)cc1)c1ccc(C(=O)Nc2ccc(F)cc2)cn1
7. CN(Cc1ccc(B(O)O)cn1)c1ccc(C(=O)Nc2ccc(F)cc2)cn1
8. CN(Cc1ccc(B(O)O)cc1)c1ncc(C(=O)Nc2ccc(F)cc2)cn1

1. 3.41
2. 2.87
3. 3.36
4. 2.47
5. 3.63
6. 3.04
7. 1.91
8. 2.08

Record request: log10 of IC50 value, item CN(Cc1cccc(B(O)O)c1)c1ccc(C(=O)Nc2ccc(F)cc2)cn1
2.61

----------
TARGET_OR_SYSTEM: C-X-C chemokine receptor type 2 (Homo sapiens, UniProt P25025)
Sequence (P25025 whole entry): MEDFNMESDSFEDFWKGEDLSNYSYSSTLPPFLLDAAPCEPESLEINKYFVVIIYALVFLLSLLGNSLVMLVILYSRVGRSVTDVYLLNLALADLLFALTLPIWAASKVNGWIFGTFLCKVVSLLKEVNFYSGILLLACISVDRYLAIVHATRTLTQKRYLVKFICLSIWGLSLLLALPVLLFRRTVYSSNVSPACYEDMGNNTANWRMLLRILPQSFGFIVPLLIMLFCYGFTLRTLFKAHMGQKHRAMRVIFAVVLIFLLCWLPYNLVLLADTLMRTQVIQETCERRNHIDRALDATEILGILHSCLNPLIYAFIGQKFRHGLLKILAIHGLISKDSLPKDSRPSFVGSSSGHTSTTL
PROCEDURE_SUMMARY: Antagonist activity at CXCR2 (unknown origin) transfected in RBL cells assessed as inhibition of IL-8-mediated intracellular calcium release preincubated for 30 mins followed by IL-8 addition by FLUO-4AM-based fluorescent microplate reader analysis
Task for the reader: assign each of the following molecules its reported IC50.

Consider the following items and state reported IC50 for each.
1. O=C(Nc1ccc(F)cc1)c1ccc(NCc2ccccc2B(O)O)nc1
2. O=C(Nc1ccc(F)cc1)c1cnc(N(Cc2ccccc2)Cc2ccc(B(O)O)cn2)nc1

> 5 µM
0.004 µM

Consider the following items and state reported IC50 for each.
1. O=C(Nc1ccc(F)cc1)c1ccc(NCc2ccc(B(O)O)cc2)nc1
2. O=C(Nc1ccc(F)cc1)c1cnc(N(Cc2ccc(B(O)O)cn2)Cc2ccco2)nc1

1. 2.2 µM
2. 0.655 µM

Requested read-out IC50, target or system C-X-C chemokine receptor type 2 (Homo sapiens, UniProt P25025), entry CN(Cc1ccc(B(O)O)cn1)c1ncc(C(=O)Nc2ccc(F)cc2)cn1
0.933 µM
